# target under test: Neuropeptide S receptor (Homo sapiens) (UniProt Q6W5P4)
# Sequence (Q6W5P4 whole entry, looked up): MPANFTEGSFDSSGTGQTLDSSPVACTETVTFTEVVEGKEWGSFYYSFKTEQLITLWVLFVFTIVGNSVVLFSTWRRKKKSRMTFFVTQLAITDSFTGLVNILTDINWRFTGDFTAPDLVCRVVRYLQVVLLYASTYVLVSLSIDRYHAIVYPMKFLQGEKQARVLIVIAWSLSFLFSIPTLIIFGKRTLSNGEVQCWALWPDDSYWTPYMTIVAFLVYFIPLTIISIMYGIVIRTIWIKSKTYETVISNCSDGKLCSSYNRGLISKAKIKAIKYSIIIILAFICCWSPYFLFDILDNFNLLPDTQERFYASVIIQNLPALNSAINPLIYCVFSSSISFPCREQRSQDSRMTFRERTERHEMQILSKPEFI
# assay summary: Confirmation Concentration-Response Assay for Antagonists of the Neuropeptide S Receptor: Calcium Signal Transduction
# protocol conditions: CHO-NPSR cells, NPS-induced calcium flux, FDSS; series mostly up to 19.3 µM
Inconclusive results are not listed. The source made the active and inactive calls. The call rests on the fitted dose curve; in most records, active means well fitted antagonist curve with a large enough effect in the main read-out, with a control signal flat; inconclusive means small, poorly fitted or top-dose-only effect; inactive means no such curve, though single readings can be large or run the other way.
Result category, one only: active, inactive

molecule	group
O=C(O)C1CCN(c2nc(-c3ccccc3)nc3c2oc2ccccc23)CC1	inactive
COc1ccc(OC)c(C2C(C(=O)Nc3nc4ccccc4s3)=C(C)NC3=C2C(=O)CCC3)c1 (stereo not drawn)	active
Cc1ccc(-c2ccc(/C=C3\C(=O)ON=C3c3ccccc3)o2)c([N+](=O)[O-])c1	active
CN(Cc1cc(=O)[nH]c2ccccc12)C(=O)c1ccccc1	inactive

Query block: So what was the verdict on CCn1cc(C(=O)NCC2CCCO2)c(=O)c2cc(S(=O)(=O)N3CCCCCC3)ccc21 (stereo not drawn) in this test?
Result block: inactive

Query block: So what was the verdict on `O=C(N1CCOCC1)C1(c2ccc(Cl)cc2)CCCC1` in this test?
Result block: inactive

Query block: So what was the verdict on `COCCCn1c(SCc2cc(=O)[nH]c3ccccc23)nnc1-c1ccco1` in this test?
Result block: inactive

Query block: So what was the verdict on `CC(=O)c1sc(N/N=C\c2ccccc2O)nc1C` in this test?
Result block: active

Query block: So what was the verdict on `CS(=O)(=O)c1nc(-c2ccccc2)cc(C(F)(F)F)n1` in this test?
Result block: active

---

# target under test: Neuropeptide S receptor (Homo sapiens) (UniProt Q6W5P4)
# assay summary: Confirmation Concentration-Response Assay for Antagonists of the Neuropeptide S Receptor: Calcium Signal Transduction
# protocol conditions: CHO-NPSR cells, NPS-induced calcium flux, FDSS; series mostly up to 19.3 µM
Results filed as inconclusive are left out. Activity calls are given as the source filed them. The call rests on the fitted dose curve; in most records, active means well fitted antagonist curve with a large enough effect in the main read-out, with a control signal flat; inconclusive means small, poorly fitted or top-dose-only effect; inactive means no such curve, though single readings can be large or run the other way.
quantity measured: Potency

Sample records with Potency:
compound	target under test	reported
O=C(/C(=C/c1ccc(Cl)cc1)c1nc2ccccc2[nH]1)c1cccs1	Neuropeptide S receptor (Homo sapiens) (UniProt Q6W5P4)	8.91 µM (active)
Cc1cc(C)n(-c2nc(NC(C)C)nc(NC(C)C)n2)n1	Neuropeptide S receptor (Homo sapiens) (UniProt Q6W5P4)	inactive
Cc1oc2c(c1C(=O)NCc1cccnc1)C(=O)c1ccccc1C2=O	Neuropeptide S receptor (Homo sapiens) (UniProt Q6W5P4)	inactive
Cc1ccc2nc3ccc(N4CCCCCCC4)nn3c(=O)c2c1	Neuropeptide S receptor (Homo sapiens) (UniProt Q6W5P4)	inactive
S=C(Nc1ccccc1)Nc1nccs1	Neuropeptide S receptor (Homo sapiens) (UniProt Q6W5P4)	inactive

Turning now to a further compound:
Query block: Param request: Potency | system Neuropeptide S receptor (Homo sapiens) (UniProt Q6W5P4) | item CCN(CC)S(=O)(=O)c1ccc2c(c1)nc(SC(C)C(N)=O)n2-c1ccc(OC)cc1 (stereo unspecified)
Result block: inactive

---

# target under test: Neuropeptide S receptor (Homo sapiens)
# assay summary: Confirmation Concentration-Response Assay for Antagonists of the Neuropeptide S Receptor: Calcium Signal Transduction
# protocol conditions: CHO-NPSR cells, NPS-induced calcium flux, FDSS; series mostly up to 19.3 µM
Results filed as inconclusive are left out. Active and inactive are the calls of the source. The call rests on the fitted dose curve; in most records, active means well fitted antagonist curve with a large enough effect in the main read-out, with a control signal flat; inconclusive means small, poorly fitted or top-dose-only effect; inactive means no such curve, though single readings can be large or run the other way.
Result category, one only: t = active, f = inactive

Solved cases below.
compound	group
C/C(=N\Nc1ncc(Cl)cc1Cl)c1ccccn1	t
O=[N+]([O-])c1ccc(-c2nc(C(Cl)Cl)c3ccccc3n2)cc1	f
C=CCNC(=O)/C(C#N)=C/c1cn(-c2ccccc2)nc1-c1ccc(OC)c([N+](=O)[O-])c1	f
C(=C\c1ccccc1)/C=N/N1CCN(c2ccccn2)CC1	f
c1cncc(-c2nc(-c3ccco3)cs2)c1	f
O=[N+]([O-])c1cc2c(cc1/C=N/n1c(-c3ccccc3)n[nH]c1=S)OCO2	f
CCSc1nc2c(c(=O)n1Cc1ccccc1)SC(C)C2 (stereo not drawn)	f
Cc1ccc(Nc2cc(C)nn2-c2nc(C)cc(C)n2)cc1	f

Query block: So what was the verdict on `COc1ccc(-c2cc(N)n(S(=O)(=O)c3c(F)c(F)c(F)c(F)c3F)n2)cc1OC` in this test?
Result block: t

---

# target under test: Neuropeptide S receptor (Homo sapiens) (UniProt Q6W5P4)
# assay summary: Confirmation Concentration-Response Assay for Antagonists of the Neuropeptide S Receptor: Calcium Signal Transduction
# protocol conditions: CHO-NPSR cells, NPS-induced calcium flux, FDSS; series mostly up to 19.3 µM
Inconclusive results are not listed. Active and inactive are the calls of the source. The call rests on the fitted dose curve; in most records, active means well fitted antagonist curve with a large enough effect in the main read-out, with a control signal flat; inconclusive means small, poorly fitted or top-dose-only effect; inactive means no such curve, though single readings can be large or run the other way.
Result category, one only: active, inactive

Query block: So what was the verdict on COc1ccc(/C=C2\CCCC3C2=NN(C(=O)c2ccco2)C3c2ccc(OC)c(OC)c2)cc1OC (centres undefined) in this test?
Result block: inactive

Query block: So what was the verdict on `CN(C)c1nc(=Nc2cccc(Cl)c2)ss1` in this test?
Result block: inactive

Query block: So what was the verdict on `COc1ccc(C(=O)N(Cc2ccco2)Cc2cccs2)c(O)c1` in this test?
Result block: inactive

---

# target under test: Neuropeptide S receptor (Homo sapiens) (UniProt Q6W5P4)
# assay summary: Confirmation Concentration-Response Assay for Antagonists of the Neuropeptide S Receptor: Calcium Signal Transduction
# protocol conditions: CHO-NPSR cells, NPS-induced calcium flux, FDSS; series mostly up to 19.3 µM
Results filed as inconclusive are left out. Calls of active or inactive are those of the source. The call rests on the fitted dose curve; in most records, active means well fitted antagonist curve with a large enough effect in the main read-out, with a control signal flat; inconclusive means small, poorly fitted or top-dose-only effect; inactive means no such curve, though single readings can be large or run the other way.
quantity measured: Potency

Sample records with Potency:
molecule	reported
O=C(CSc1n[nH]c(-c2cccnc2)n1)Nc1ccnc2ccccc12	inactive
CCCN1C(=O)/C(=C\C=C2/C=CN(CC)c3ccccc32)SC1=S	inactive
N=C1c2ccccc2CN1c1ccc(N2CCOCC2)c(S(=O)(=O)Nc2ccc(Cl)cc2)c1	1.41 µM (active)
CC1(C)Cc2c(c(N3CCOCC3)nc3sc4c(NCC5CCCO5)nnnc4c23)CS1 (centres undefined)	inactive
CCC(Sc1ccc2nnc(-c3cccnc3)n2n1)C(=O)O (centres undefined)	inactive

Query block: Param request: Potency | system Neuropeptide S receptor (Homo sapiens) (UniProt Q6W5P4) | item `O=C(COC(=O)c1ccccc1C(=O)c1ccc(Cl)c([N+](=O)[O-])c1)NC1CCCCCC1`
Result block: 4.47 µM (active)

Query block: Param request: Potency | system Neuropeptide S receptor (Homo sapiens) (UniProt Q6W5P4) | item `Oc1ccc(N=Nc2nccs2)c(O)c1`
Result block: inactive

Query block: Param request: Potency | system Neuropeptide S receptor (Homo sapiens) (UniProt Q6W5P4) | item `c1ccc(-c2ccc(-c3nc(-c4cccnc4)no3)cc2)cc1`
Result block: inactive

Query block: Param request: Potency | system Neuropeptide S receptor (Homo sapiens) (UniProt Q6W5P4) | item `CCc1ccc2oc(-c3cc(N)cc(C)c3O)nc2c1`
Result block: inactive

Query block: Param request: Potency | system Neuropeptide S receptor (Homo sapiens) (UniProt Q6W5P4) | item `Cc1ccc(S(=O)(=O)Nc2cccc3ncccc23)s1`
Result block: 3.16 µM (active)

Query block: Param request: Potency | system Neuropeptide S receptor (Homo sapiens) (UniProt Q6W5P4) | item `Cc1nnc(NC(=O)c2cccc(S(=O)(=O)N3CCc4ccccc43)c2)s1`
Result block: inactive

Query block: Param request: Potency | system Neuropeptide S receptor (Homo sapiens) (UniProt Q6W5P4) | item CCOc1ccc(N2C(=O)CC(NCCc3ccncc3)C2=O)cc1 (centres undefined)
Result block: inactive

Query block: Param request: Potency | system Neuropeptide S receptor (Homo sapiens) (UniProt Q6W5P4) | item `Cc1cccnc1NC(=O)c1c(O)c2cccc3c2n(c1=O)CCC3`
Result block: inactive

Query block: Param request: Potency | system Neuropeptide S receptor (Homo sapiens) (UniProt Q6W5P4) | item `Nn1c(COc2ccccc2)nnc1SCc1cc(=O)[nH]c2ccccc12`
Result block: inactive

---

# target under test: Neuropeptide S receptor (Homo sapiens)
# assay summary: Confirmation Concentration-Response Assay for Antagonists of the Neuropeptide S Receptor: Calcium Signal Transduction
# protocol conditions: CHO-NPSR cells, NPS-induced calcium flux, FDSS; series mostly up to 19.3 µM
Results filed as inconclusive are left out. Calls of active or inactive are those of the source. Calls come from the whole dose curve; as a rule, active = well fitted antagonist curve with a large enough effect in the main read-out, with a control signal flat; inconclusive = small, poorly fitted or top-dose-only effect; inactive = no such curve, though single readings can be large or run the other way.
Result category, one only: 1 (active), 0 (inactive)

Solved cases below.
compound	group
Cn1nc(-c2ccc(Cl)cc2)nc2c(=O)n(C)c(=O)nc1-2	0
CCOC(=O)c1cnc(-n2nc(C)cc2C)nc1NC1CCCC1	1
CC1CCCc2sc3nc(N4CCN(CCO)CC4)n4ncnc4c3c21 (stereo unspecified)	0
Brc1ccc(CSc2ncn[nH]2)cc1	0
Cc1ccc(Cn2cc(SCC(=O)Nc3nccs3)c3ccccc32)cc1	0
O=C(O)c1cccc(Nc2ncnc3ccccc23)c1	0
CCOC(=O)C1CCCN(c2ncnc3c2oc2ccccc23)C1 (stereo unspecified)	1
CCC(c1nnnn1C1CCCC1)N1CCN(c2ccccc2)CC1 (stereo unspecified)	0
Cn1c(COc2ccccc2)nnc1SCc1cc(=O)[nH]c2ccccc12	0
CC(=O)n1nc2nc(C)cc(C)c2c1N	0

Now, please, on to the next compound.
Query block: So what was the verdict on `Cc1ccc(/C=C2\SC(=S)N(CC(=O)Nc3ncc(Cc4ccccc4Cl)s3)C2=O)cc1` in this test?
Result block: 0
